# Tested on: NCI-H522 lung
# EXPERIMENTAL PROTOCOL: NCI tumour cell line growth inhibition, 48 h
VALUE TYPE: TGI (µM)
A number alone suffices; assume µM.

Recall and state the measured TGI for CC(=O)OC1CC(C)c2c1ncnc2N1CCN(C(=O)OC(C)(C)C)CC1 (stereo not drawn) .
47.2

Hello, please tell me recorded TGI for this one: COc1cc([C@@H]2c3cc4c(cc3[C@@H](NC(=O)c3ccc(C(C)=O)cc3)C3COC(=O)[C@@H]32)OCO4)cc(OC)c1O (stereo partly drawn)
3.89

Report TGI for COc1ccc(OC)c(-c2cn3nc(-c4c[nH]c5ccc(Br)cc45)sc3n2)c1
4.81

Quick one: give measured TGI for O=[N+]([O-])/C=C/c1cccc(F)c1
26.9

Read the entry COc1ccc(-n2nc(C)c3c(Nc4ccc(NC(=O)Nc5cc(C(F)(F)F)ccc5F)cc4)ncnc32)cc1 and write its reported TGI.
4.95
